biological target: Glutamate receptor 2 (Homo sapiens); test: Positive allosteric modulation of human GluA2 receptor flop isoform assessed as increase in glutamate-induced calcium flux measured at time interval of 5 mins in presence of saturating glycine by calcium dye-based fluorescence assay; assay type: Functional, single protein
Sequence (P42262 whole entry, canonical isoform): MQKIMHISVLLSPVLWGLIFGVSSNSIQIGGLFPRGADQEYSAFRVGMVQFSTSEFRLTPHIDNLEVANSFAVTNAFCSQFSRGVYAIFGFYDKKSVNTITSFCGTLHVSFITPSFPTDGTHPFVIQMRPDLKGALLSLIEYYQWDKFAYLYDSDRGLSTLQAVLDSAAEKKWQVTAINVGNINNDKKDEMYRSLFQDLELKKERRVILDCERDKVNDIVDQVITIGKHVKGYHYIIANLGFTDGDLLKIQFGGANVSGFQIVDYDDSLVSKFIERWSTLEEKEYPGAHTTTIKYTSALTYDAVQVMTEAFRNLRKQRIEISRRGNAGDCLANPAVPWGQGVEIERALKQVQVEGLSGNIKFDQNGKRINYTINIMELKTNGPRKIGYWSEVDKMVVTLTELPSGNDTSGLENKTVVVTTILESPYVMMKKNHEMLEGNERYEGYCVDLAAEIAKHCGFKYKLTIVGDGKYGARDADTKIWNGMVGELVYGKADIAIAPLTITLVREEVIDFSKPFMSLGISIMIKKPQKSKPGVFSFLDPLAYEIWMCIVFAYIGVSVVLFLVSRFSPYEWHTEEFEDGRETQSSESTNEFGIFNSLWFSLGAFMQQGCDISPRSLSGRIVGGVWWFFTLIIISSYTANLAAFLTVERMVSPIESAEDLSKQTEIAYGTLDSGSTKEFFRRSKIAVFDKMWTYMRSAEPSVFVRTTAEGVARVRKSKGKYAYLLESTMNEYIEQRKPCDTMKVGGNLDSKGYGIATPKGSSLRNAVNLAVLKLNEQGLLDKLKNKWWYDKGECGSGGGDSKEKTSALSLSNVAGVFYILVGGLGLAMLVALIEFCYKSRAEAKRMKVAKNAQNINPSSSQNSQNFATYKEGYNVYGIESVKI
# label = Yes if EC50 < 2 µM else No

Query :: Consider the compound N#C[C@@H]1C[C@H]1c1c(Cl)ccc2nc(Cn3nc(C(F)(F)F)cc3Cl)cc(=O)n12 . Is its EC50 strictly less than 2 µM?
Result :: No

Query :: Consider Cc1cc([C@@H]2C[C@H]2C#N)n2c(=O)cc(Cn3nc(C(F)(F)F)cc3Cl)nc2c1 . Does its EC50 lie strictly below 2 µM?
Result :: Yes

Query :: A record lists Cc1ccc2nc(Cn3nc(C(F)(F)F)cc3Cl)cc(=O)n2c1C1CC1 . Is its EC50 below 2 µM?
Result :: No

Query :: Consider Cc1ccc2nc(Cn3nc(C(F)(F)F)cc3Cl)cc(=O)n2c1[C@@H]1C[C@H]1C#N . Does its EC50 lie strictly below 2 µM?
Result :: No

Query :: Please indicate whether the reported EC50 of N#C[C@@H]1C[C@H]1c1cccc2nc(Cn3nc(C(F)(F)F)cc3Cl)cc(=O)n12 is strictly below 2 µM.
Result :: Yes

Others:
Query :: Hello, I'm reviewing records and need to know if EC50 of COc1cc([C@@H]2C[C@H]2C#N)n2c(=O)cc(Cn3nc(C(F)(F)F)cc3Cl)nc2c1 is below 2 µM. Could you check?
Result :: No

Query :: I wonder whether N#C[C@@H]1C[C@H]1c1cc(C(F)(F)F)cc2nc(Cn3nc(C(F)(F)F)cc3Cl)cc(=O)n12 has EC50 below 2 µM. Can you tell?
Result :: No

Query :: Record Cc1sc2nc(Cn3nc(C(F)(F)F)cc3Cl)cc(=O)n2c1-c1cncnc1 : is its EC50 strictly below 2 µM?
Result :: Yes

Query :: I wonder whether N#C[C@@H]1C[C@H]1c1c(F)ccc2nc(Cn3nc(C(F)(F)F)cc3Cl)cc(=O)n12 has EC50 below 2 µM. Can you tell?
Result :: Yes

###

biological target: Glutamate NMDA receptor; GRIN1/GRIN2A (Homo sapiens, UniProt Q05586+Q12879); assay: Positive allosteric modulation of GluN1/GluN2A receptor (unknown origin) expressed in CHO cells assessed as increase in glutamate-induced calcium flux measured at time interval of 5 mins in presence of saturating glycine by calcium dye-based fluorescence assay
Sequence (Q12879 whole entry, other chains not shown): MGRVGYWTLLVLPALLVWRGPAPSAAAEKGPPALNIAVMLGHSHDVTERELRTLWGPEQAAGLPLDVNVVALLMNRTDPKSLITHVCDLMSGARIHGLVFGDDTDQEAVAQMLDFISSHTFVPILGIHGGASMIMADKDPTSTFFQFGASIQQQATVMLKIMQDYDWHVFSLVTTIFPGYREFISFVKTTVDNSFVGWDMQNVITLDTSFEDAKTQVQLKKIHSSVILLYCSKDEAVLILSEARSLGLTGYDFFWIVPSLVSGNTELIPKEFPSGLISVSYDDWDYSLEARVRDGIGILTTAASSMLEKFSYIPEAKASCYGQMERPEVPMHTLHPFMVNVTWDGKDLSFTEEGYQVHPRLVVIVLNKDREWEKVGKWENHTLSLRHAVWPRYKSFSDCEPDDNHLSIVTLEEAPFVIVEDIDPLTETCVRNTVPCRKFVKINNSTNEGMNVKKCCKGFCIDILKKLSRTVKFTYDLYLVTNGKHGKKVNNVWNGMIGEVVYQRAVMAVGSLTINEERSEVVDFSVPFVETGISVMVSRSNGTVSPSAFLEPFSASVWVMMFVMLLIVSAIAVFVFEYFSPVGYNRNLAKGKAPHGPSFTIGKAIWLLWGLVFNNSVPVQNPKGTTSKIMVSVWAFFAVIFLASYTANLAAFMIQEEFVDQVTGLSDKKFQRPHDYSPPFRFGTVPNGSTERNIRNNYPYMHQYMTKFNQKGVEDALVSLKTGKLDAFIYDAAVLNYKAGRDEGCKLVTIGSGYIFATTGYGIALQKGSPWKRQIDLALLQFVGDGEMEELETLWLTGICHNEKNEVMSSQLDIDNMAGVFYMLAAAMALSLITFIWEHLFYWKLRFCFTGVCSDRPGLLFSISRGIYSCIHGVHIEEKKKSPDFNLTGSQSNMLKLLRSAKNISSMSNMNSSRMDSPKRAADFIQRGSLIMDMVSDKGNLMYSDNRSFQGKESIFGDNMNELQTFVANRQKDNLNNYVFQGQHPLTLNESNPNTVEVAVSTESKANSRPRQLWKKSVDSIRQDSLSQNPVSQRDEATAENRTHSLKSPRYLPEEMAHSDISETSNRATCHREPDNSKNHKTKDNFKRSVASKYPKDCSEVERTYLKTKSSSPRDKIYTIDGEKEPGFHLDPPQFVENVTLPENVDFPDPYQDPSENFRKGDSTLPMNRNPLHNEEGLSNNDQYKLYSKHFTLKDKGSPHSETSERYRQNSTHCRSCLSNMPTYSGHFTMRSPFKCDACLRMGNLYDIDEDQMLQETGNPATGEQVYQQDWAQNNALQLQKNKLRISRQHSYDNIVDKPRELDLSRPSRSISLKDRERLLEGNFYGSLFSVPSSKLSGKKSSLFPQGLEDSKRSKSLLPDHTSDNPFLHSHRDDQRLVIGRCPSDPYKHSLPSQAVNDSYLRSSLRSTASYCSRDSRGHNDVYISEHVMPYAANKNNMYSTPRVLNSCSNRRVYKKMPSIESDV
pEC50: −log10 of the molar value.
Would you please tag the item condition met when its pEC50 is 7 or above, and condition not met when it is below?

Query :: Does the reported pEC50 for N#C[C@@H]1C[C@H]1c1cccc2nc(Cn3nc(C(F)(F)F)cc3Cl)cc(=O)n12 fall at or above the 7 mark?
Result :: condition met

Query :: Does N#C[C@@H]1C[C@H]1c1c(F)ccc2nc(Cn3nc(C(F)(F)F)cc3Cl)cc(=O)n12 have a reported pEC50 of at least 7?
Result :: condition met

Query :: Please indicate if the recorded pEC50 for CCNC(=O)c1c(C)ccc2nc(Cn3nc(C(F)(F)F)cc3Cl)cc(=O)n12 meets or exceeds 7.
Result :: condition not met

Query :: Say whether Cc1ccc2nc(Cn3nc(C(F)(F)F)cc3Cl)cc(=O)n2c1-c1cncnc1 shows pEC50 of 7 or more.
Result :: condition not met

Query :: Can Cc1ccc2nc(Cn3nc(C(F)(F)F)cc3Cl)cc(=O)n2c1[C@@H]1C[C@H]1C#N be said to have pEC50 at or above 7?
Result :: condition met

Query :: Exam item: decide whether the reported pEC50 for Cc1sc2nc(Cn3nc(C(F)(F)F)cc3Cl)cc(=O)n2c1-c1cncnc1 is at least 7.
Result :: condition not met

Query :: Please tell me: is the compound Cc1ccc2nc(Cn3nc(C(F)(F)F)cc3Cl)cc(=O)n2c1C1CC1 at or over 7 in terms of pEC50?
Result :: condition not met

Query :: Has Cc1sc2nc(Cn3nc(C(F)(F)F)cc3Cl)cc(=O)n2c1C1CC1 a recorded pEC50 greater than or equal to 7?
Result :: condition not met

FYI, the data here is from ChEMBL document CHEMBL3870360.
